Target: mushroom tyrosinase (Agaricus bisporus)
Sequence (C7FF04 1-392): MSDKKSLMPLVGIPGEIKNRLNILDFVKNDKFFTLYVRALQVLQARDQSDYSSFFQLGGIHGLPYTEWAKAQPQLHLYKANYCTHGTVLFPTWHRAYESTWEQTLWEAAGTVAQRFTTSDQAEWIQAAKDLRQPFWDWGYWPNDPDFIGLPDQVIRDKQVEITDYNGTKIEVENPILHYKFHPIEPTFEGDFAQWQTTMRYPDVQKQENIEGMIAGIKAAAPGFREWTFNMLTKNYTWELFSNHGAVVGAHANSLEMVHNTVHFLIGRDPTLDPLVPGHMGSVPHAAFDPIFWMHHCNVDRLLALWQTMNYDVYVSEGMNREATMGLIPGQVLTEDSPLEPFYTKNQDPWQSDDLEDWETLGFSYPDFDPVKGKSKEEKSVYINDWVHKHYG
Assay: Kinetics of enzyme inhibition (Michaelis-Menten, nonlinear fitting, F-statistics)
Type: biochemical
Conditions: Ki for competitive, Kic for non-competitive model; nonlinear data fitting; read-out: Ki or Kic
readout_type: Ki (µM)
The figure you give is taken to be in µM; do not add the unit.

>>> df
             sample_smiles  recorded_number
0  Cc1cc(=O)[nH]c(=S)[nH]1              170

Please examine the following record next.
Provide Ki value for the following molecule: `Cn1cc[nH]c1=S`
73

---

Molecular target: mushroom tyrosinase (Agaricus bisporus)
Assay: Mushroom tyrosinase enzyme activity inhibition assay
Type: biochemical
Details: concentration-dependent profiles; urea, thiourea, selenourea compared without DMSO
readout_type: inhibition of tyrosinase enzyme activity (in words)

>>> print(df.to_string())
   sample_smiles                 result
0        NC(N)=O  no effect on activity
1    N=C(N)[SeH]  no effect on activity

Entry source: paper PMC4691061
